# measurementTarget: T1, BMP-12 (UniProt Q7Z4P5 322-450, limits assumed)
# T1 construct: also called BMP12/GDF7
# T1 sequence (looked up): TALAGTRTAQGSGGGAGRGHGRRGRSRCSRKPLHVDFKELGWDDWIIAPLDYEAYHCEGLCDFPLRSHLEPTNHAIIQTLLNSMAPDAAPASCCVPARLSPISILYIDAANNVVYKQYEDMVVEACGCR
# testDetails: peptide resin, filter plate; load 3: 25 mM Na Acetate pH 5.0
No end group written: not given here.
measureName: Flow-through conc (mg/mL)
Report the figure in mg/mL without appending any unit label.

Previously resolved entries follow.
# binder, measureName, numericResult
measured = [
    ("Ac-VAPPGYHAFYSHGEK [BMP2 N-trunc_2 peptide 745]", "Flow-through conc", 0.407),
    ("Ac-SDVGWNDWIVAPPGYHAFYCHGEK [BMP2 N-trun peptide 750]", "Flow-through conc", 0.163),
]

Turning to the following binder.
Note to self: Flow-through conc recorded for Ac-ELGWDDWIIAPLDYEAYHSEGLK [BMP12 N-trun_1S peptide 749] was 0.032
